From: BindingDB's records for doi:10.3109/14756366.2012.750311

target: Carbonic anhydrase 2 (Homo sapiens, UniProt P00918)
test-readout: IC50 (µM)
The reply should contain only the number, in µM.

For CS(=O)(=O)NC1CCc2ccccc2C1 (stereo unspecified) on Carbonic anhydrase 2 (Homo sapiens, UniProt P00918), measured IC50 was 338

###

target: Carbonic anhydrase 1 (Homo sapiens)
Sequence (P00915 whole entry): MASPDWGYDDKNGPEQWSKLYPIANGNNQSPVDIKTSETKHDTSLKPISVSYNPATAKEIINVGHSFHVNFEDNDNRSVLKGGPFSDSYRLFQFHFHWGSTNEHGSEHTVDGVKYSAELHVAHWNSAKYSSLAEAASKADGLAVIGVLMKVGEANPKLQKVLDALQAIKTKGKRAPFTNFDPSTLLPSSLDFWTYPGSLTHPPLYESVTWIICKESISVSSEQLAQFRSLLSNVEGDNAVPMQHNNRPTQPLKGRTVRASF
test-readout: pIC50
# reply with the number alone; pIC50 is -log10 of concentration in mol/L

Field pIC50 (entry COc1cc2c(cc1OC)C(NS(C)(=O)=O)CC2 (stereo unspecified) ) reads 3.31

###

Measured pKi on Carbonic anhydrase 1 (Homo sapiens) follows.
# reply with the number alone; pKi is -log10 of concentration in mol/L

For CS(=O)(=O)NC1Cc2ccccc2C1 [N-(Indane-2-yl)methanesulfonamide (33)] on Carbonic anhydrase 1 (Homo sapiens), measured pKi was 3.98

Further cases:
For CS(=O)(=O)NC1CCc2ccccc21 (centres undefined) [N-(Indane-1-yl)methanesulfonamide (29)] on Carbonic anhydrase 1 (Homo sapiens), measured pKi was 3.76

For CS(=O)(=O)NC1CCc2ccccc2C1 (centres undefined) on Carbonic anhydrase 1 (Homo sapiens), measured pKi was 3.64

For COc1cccc2c1CCCC2NS(C)(=O)=O (centres undefined) on Carbonic anhydrase 1 (Homo sapiens), measured pKi was 3.73

###

target: Carbonic anhydrase 2 (Homo sapiens)
test-readout: Ki (µM)
The reply should contain only the number, in µM.

For CS(=O)(=O)NC1CCc2ccccc21 (centres undefined) [N-(Indane-1-yl)methanesulfonamide (29)] on Carbonic anhydrase 2 (Homo sapiens), measured Ki was 211

For COc1cccc2c1CCCC2NS(C)(=O)=O (centres undefined) on Carbonic anhydrase 2 (Homo sapiens), measured Ki was 112

For CS(=O)(=O)NC1Cc2ccccc2C1 [N-(Indane-2-yl)methanesulfonamide (33)] on Carbonic anhydrase 2 (Homo sapiens), measured Ki was 170

Further cases:
For COc1cc2c(cc1OC)C(NS(C)(=O)=O)CC2 (centres undefined) on Carbonic anhydrase 2 (Homo sapiens), measured Ki was 215
